Test Description: Assessment of solubility (McIlvaine buffers, 24 h shake, UPLC-UV)
Format: physicochemical
Assay Setup: pH 6.8, aqueous buffer, kinetic from dmso stock
Description: Solubility is measured by the following method. 100 uL, 10 mM DMSO stock solution of each compound is prepared in a 96 well plate format. The experiment is done in single determination at 3 pH values (2.2, 4.5 and 6.8). For each pH and one reference, 40 uL of each compound is needed. McIlvaine pH 2.2: To 2.076 g citric acid monohydrate and 0.043 g Na2HPO4×2H2O add 100 ml deionized water […] The samples are measured with UPLC-UV using the chromatographic method described below. […]
solubility at 24 h below 80 µg/mL gives Condition not met; solubility at 24 h at or above it gives Condition met.

Worked set:
[[record]]
molecule = "COc1c(C(=O)O)cnn1-c1cccc(-c2cccc(C)c2OCc2ccc3c(c2C)CCN([C@@H]2CCOC2)CC3)n1 [Compound 207]"
assigned_label = "Condition not met"

[[record]]
molecule = "COc1c(C(=O)O)cnn1-c1cccc(-c2cc(F)cc(F)c2OCc2ccc3c(c2)CCN(C2CCOCC2)C3)n1 [Compound 53]"
assigned_label = "Condition not met"

[[record]]
molecule = "COCCOc1c(C(=O)O)cnn1-c1cccc(-c2cccc(C)c2OCc2ccc3c(c2C)CCN(C2CCOCC2)C3)n1 [Compound 151]"
assigned_label = "Condition met"

[[record]]
molecule = "COc1c(C(=O)O)cnn1-c1cccc(-c2cccc(C)c2OCc2ccc3c(c2F)CCN(C[C@H]2COCCO2)C3)n1 [Compound 234]"
assigned_label = "Condition met"


Field: next molecule
Query block: // inclusive: solubility at 24 h at least 80 µg/mL? input: COc1c(C(=O)O)cnn1-c1cccc(-c2cccc(F)c2OCc2ccc3c(c2)CCN(C2CCOCC2)C3)n1 [Compound 63]
Result block: Condition met

Sourced from patent US8906904B2
